System: Collectotrichum graminicola (Cg)
test_method_notes: In vitro pathogen growth inhibition assay, Cg
Format: cell-based
conditions: 48 h, ≥90% growth inhibition; 48 hours; vs 2% DMSO control; read-out: Compound Concentration (ppm) sufficient for ≥90% inhibition of Cg
property_measured: IC90 (µg/mL)
Answer in µg/mL, number only, no unit symbol.

Below, each entry is followed by its recorded IC90 result.
>>> df
                                   molecule  endpoint_value
0  CCNC(=O)C(C)(C)n1c(=O)c2c(C)c(-n3cccn3)sc2n(C[C@H](OCCC#N)c2cc(F)ccc2OC)c1=O [Compound I-235]               2
1  CCNC(=O)C(C)(C)n1c(=O)c2c(C)c(-n3nccn3)sc2n(C[C@H](O)c2cc(F)ccc2OC)c1=O [Compound I-292]               2
2  CCNC(=O)[C@H](C)n1c(=O)c2c(C)c(-n3nccn3)sc2n(C[C@H](OCCC#N)c2cc(F)ccc2OC)c1=O [Compound I-290]              10
3  COc1ccc(Br)cc1[C@H](Cn1c(=O)n(C(C)(C)C(=O)NC(C)C)c(=O)c2c(C)c(-n3nccn3)sc21)OCC(C)(C)C#N [Compound I-270]               2
4  COc1ccc(F)cc1[C@H](Cn1c(=O)n([C@H](C)C(=O)NC(C)C)c(=O)c2c(C)c(-n3nccn3)sc21)OCC(C)(C)C#N [Compound I-253]             0.4
5  COc1ccccc1[C@H](Cn1c(=O)n([C@@H](C)C(=O)N(C)C(C)C)c(=O)c2c(C)c(-n3nccn3)sc21)OCCC#N [Compound I-239]               2
6  CCOC(=O)c1sc2c(c1C)c(=O)n(C(C)(C)C(=O)N1CCCCC1)c(=O)n2C[C@H](OC1CCOCC1)c1ccccc1OC [Compound I-168]             0.4
7  CCOC(=O)c1sc2c(c1C)c(=O)n(C(C)(C)C(=O)NC(C)C)c(=O)n2CCc1cc(F)ccc1OC [Compound I-298]              10

GET /values?readout=IC90&item= Cc1c(-n2nccn2)sc2c1c(=O)n(C(C)(C)C(=O)NC1CCC1)c(=O)n2C[C@H](OC(C)C)c1cc(F)ccc1OCC#N [Compound I-267]
2

GET /values?readout=IC90&item= COc1ccc(F)cc1[C@H](Cn1c(=O)n(C(C)(C)C(=O)NC(C)C)c(=O)c2c(C)c(-n3nccn3)sc21)OCCS(C)(=O)=O [Compound I-287]
0.4

GET /values?readout=IC90&item= Cc1c(-n2nccn2)sc2c1c(=O)n(C(C)(C)C(=O)NC(C)C)c(=O)n2C[C@H](OCC(C)(C)O)c1cc(F)ccc1OCC#N [Compound I-278]
0.4

GET /values?readout=IC90&item= CCOC(=O)c1sc2c(c1C)c(=O)n(C(C)(C)C(=O)NC(C)C)c(=O)n2C[C@H](OC[C@H](C)C#N)c1cc(F)ccc1OC [Compound I-259]
0.08

====

IC90 reference
Tested on: Collectotrichum graminicola (Cg)
test_method_notes: In vitro pathogen growth inhibition assay, Cg
Format: cell-based
conditions: 48 h, ≥90% growth inhibition; 48 hours; vs 2% DMSO control; read-out: Compound Concentration (ppm) sufficient for ≥90% inhibition of Cg
Answer in µg/mL, number only, no unit symbol.

Below, each entry is followed by its recorded IC90 result.
>>> print(df.to_string())
                           structure_string    uom  endpoint_value
0  COc1ccc(F)cc1[C@@H](O)Cn1c(=O)n(C(C)(C)C(=O)N2CCCC2)c(=O)c2c(C)c(-n3nccn3)sc21  µg/mL               2
1  COc1ccc(F)cc1[C@H](Cn1c(=O)n([C@@H](C)C(=O)NC(C)C)c(=O)c2c(C)c(-n3nccn3)sc21)OCCC#N  µg/mL              10
2  COc1ccccc1[C@H](Cn1c(=O)n(C(C)(C)C(=O)NC(C)C)c(=O)c2c(C)c(-n3nccn3)sc21)O[C@H]1CC[C@@H](O)CC1  µg/mL               2
3  COc1ccc(F)cc1[C@H](Cn1c(=O)n(C(C)(C)C(=O)NC(C)C)c(=O)c2c(C)c(-n3cccn3)sc21)OC[C@H](C)C#N  µg/mL             0.4
4  CCNC(=O)[C@@H](C)n1c(=O)c2c(C)c(-n3nccn3)sc2n(C[C@H](OCCC#N)c2cc(F)ccc2OC)c1=O  µg/mL            0.08

GET /values?readout=IC90&item= COc1ccc(F)cc1[C@@](O)(CCO)Cn1c(=O)n(C(C)(C)C(=O)NC(C)C)c(=O)c2c(C)c(-n3nccn3)sc21
2

GET /values?readout=IC90&item= CCOC(=O)c1sc2c(c1C)c(=O)n(C(C)(C)C(=O)NC(C)C)c(=O)n2C[C@H](O)c1cc(F)ccc1OC
2

GET /values?readout=IC90&item= CCOC(=O)c1sc2c(c1C)c(=O)n(C(C)(C)C(=O)N1CCCC1)c(=O)n2C[C@H](OCCC#N)c1cc(F)ccc1OC
2

====

System: Phytophthora capsici (Pc)
test_method_notes: In vitro pathogen growth inhibition assay, Pc
Assay type: cell-based
conditions: 48 h, ≥90% inhibition, 48 hours vs 2% DMSO control, read-out: Compound Concentration (ppm) sufficient for ≥90% inhibition of growth, Pc
IC90 reference

                           structure_string  endpoint_value
0  COc1ccc(F)cc1[C@H](Cn1c(=O)n(C(C)(C)C(=O)N2CCCCC2)c(=O)c2c(C)c(-n3nccn3)sc21)OC(C)C      > 50 µg/mL
1  COc1ccccc1[C@H](Cn1c(=O)n(C(C)(C)C(=O)NC(C)C)c(=O)c2c(C)c(-c3ncco3)sc21)OC(C)C      > 50 µg/mL
2  COc1ccccc1[C@H](Cn1c(=O)n(C(C)(C)C(=O)NC2CCC2)c(=O)c2c(C)c(-n3nccn3)sc21)OC1CCOCC1      ≥ 10 µg/mL
3  Cc1c(-n2nccn2)sc2c1c(=O)n(C(C)(C)C(=O)NC(C)C)c(=O)n2C[C@H](OC(C)C)c1cc(F)ccc1OCC#N      > 50 µg/mL
4  CCO[C@@H](Cn1c(=O)n(C(C)(C)C(=O)NC(C)C)c(=O)c2c(C)c(-n3cccn3)sc21)c1cc(F)ccc1OC      > 50 µg/mL
5  CNC(=O)C(C)(C)n1c(=O)c2c(C)c(-n3nccn3)sc2n(C[C@H](OC(C)C)c2cc(F)ccc2OC)c1=O      > 50 µg/mL
6  CCNC(=O)C(C)(C)n1c(=O)c2c(C)c(-c3ncco3)sc2n(C[C@H](OC(C)C)c2ccccc2OC)c1=O      > 50 µg/mL
7  COc1ccc(F)cc1[C@H](Cn1c(=O)n(C(C)(C)C(=O)NC(C)C)c(=O)c2c(C)c(-n3cccn3)sc21)OCC(C)(C)O      ≥ 50 µg/mL

Phytophthora capsici (Pc) / IC90 / COc1ccc(F)cc1[C@H](Cn1c(=O)n(C(C)(C)C(=O)N2CCCC2)c(=O)c2c(C)c(-n3cccn3)sc21)OC[C@@H](C)O : value?
> 50 µg/mL

====

System: Rhizoctonia solani (Rs)
test_method_notes: In vitro pathogen growth inhibition assay, Rs (mycelial plugs)
Format: cell-based
conditions: Rhizoctonia solani, 48 h, ≥90% growth inhibition; mycelial plugs; 48 hours; vs 2% DMSO control; read-out: Compound Concentration (ppm) sufficient for ≥90% inhibition of Rs
property_measured: IC90 (µg/mL)
Answer in µg/mL, number only, no unit symbol.

Below, each entry is followed by its recorded IC90 result.
In [3]: df
Out[3]:
                           structure_string  endpoint_value
0  COc1ccc(F)cc1[C@H](Cn1c(=O)n([C@H](C)C(N)=O)c(=O)c2c(C)c(-n3nccn3)sc21)OCCC#N               2
1  CCOC(=O)c1ccc(F)cc1[C@H](Cn1c(=O)n(C(C)(C)C(=O)NC(C)C)c(=O)c2c(C)c(-n3nccn3)sc21)OCCC#N              10
2  CCNC(=O)C(C)(C)n1c(=O)c2c(C)c(-n3cccn3)sc2n(C[C@H](OCCC#N)c2ccccc2OC)c1=O               2
3  CCNC(=O)C(C)(C)n1c(=O)c2c(C)c(-n3cccn3)sc2n(C[C@H](OCCC#N)c2cc(F)ccc2OC)c1=O               2

GET /values?readout=IC90&item= COc1ccc(F)cc1[C@@H](O)Cn1c(=O)n(C(C)(C)C(=O)N2CCCC2)c(=O)c2c(C)c(-n3nccn3)sc21
0.08

GET /values?readout=IC90&item= CCOC(=O)c1sc2c(c1C)c(=O)n(C(C)(C)C(=O)NC(C)C)c(=O)n2C[C@H](O)c1cc(F)ccc1OC
0.4

GET /values?readout=IC90&item= COc1ccccc1CCn1c(=O)n(C(C)(C)C(=O)NC(C)C)c(=O)c2c(C)c(-n3nccn3)sc21
2

GET /values?readout=IC90&item= COc1ccc(F)cc1[C@@H](O)Cn1c(=O)n([C@H](C)C(=O)N(C)C(C)C)c(=O)c2c(C)c(-n3nccn3)sc21
0.4

GET /values?readout=IC90&item= CC(=O)Oc1ccccc1[C@H](Cn1c(=O)n(C(C)(C)C(=O)NC(C)C)c(=O)c2c(C)c(-n3nccn3)sc21)OCCC#N
2

GET /values?readout=IC90&item= CCOC(=O)c1sc2c(c1C)c(=O)n(C(C)(C)C(=O)N1CCCC1)c(=O)n2C[C@H](O)c1cc(F)ccc1OC
0.08

GET /values?readout=IC90&item= COc1ccc(F)cc1[C@H](Cn1c(=O)n([C@@H](C)C(=O)NC(C)C)c(=O)c2c(C)c(-n3nccn3)sc21)OCCC#N
0.4

GET /values?readout=IC90&item= COc1ccc(F)cc1CCn1c(=O)n(C(C)(C)C(=O)NC(C)C)c(=O)c2c(C)c(-n3cccn3)sc21
50

GET /values?readout=IC90&item= COc1ccccc1[C@H](Cn1c(=O)n([C@@H](C)C(=O)N(C)C(C)C)c(=O)c2c(C)c(-n3nccn3)sc21)OCCC#N
0.08

GET /values?readout=IC90&item= Cc1c(-n2nccn2)sc2c1c(=O)n(C(C)(C)C(=O)NC(C)C)c(=O)n2CCc1cc(F)ccc1OCCC#N
50

GET /values?readout=IC90&item= CCNC(=O)C(C)(C)n1c(=O)c2c(C)c(-n3nccn3)sc2n(C[C@H](OCCC#N)c2ccccc2OC)c1=O
0.08

GET /values?readout=IC90&item= COc1ccc(F)cc1[C@@H](O)Cn1c(=O)n(C(C)(C)C(=O)NC(C)C)c(=O)c2c(C)c(-n3cccn3)sc21
0.4
